- test_system: SNARE complex (VAMP, syntaxin and SNAP-25 bound to GST) (UniProt P60880)
- Sequence (P60880 whole entry, one chain of several): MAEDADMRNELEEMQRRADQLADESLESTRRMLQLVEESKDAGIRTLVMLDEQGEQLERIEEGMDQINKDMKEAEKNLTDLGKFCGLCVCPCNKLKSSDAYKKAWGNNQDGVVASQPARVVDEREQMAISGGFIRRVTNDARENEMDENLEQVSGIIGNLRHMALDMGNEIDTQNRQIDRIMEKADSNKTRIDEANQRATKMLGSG
- assay_text: competition ELISA: VAMP on plate, SNAP-25-GST + syntaxin, anti-GST detection; compound at 0.5 mM
*: point of attachment. Palmitoyl = CCCCCCCCCCCCCCCC(=O)*
Binary call on % inhibition formation SNARE complex: t from 20% upward, f beneath that.

**Q:** # bool: % inhibition formation SNARE complex of Ac-DHFLNWM-NH2 [Ac-SEQ ID NO:34-NH2] >= 20%
**A:** t

**Q:** # bool: % inhibition formation SNARE complex of Palmitoyl-DHFLDWM-NH2 [Palm-SEQ ID NO:25-NH2] >= 20%
**A:** t

**Q:** # bool: % inhibition formation SNARE complex of H-EHLKQWM-NH2 [H-SEQ ID NO:1-NH2] >= 20%
**A:** t

**Q:** # bool: % inhibition formation SNARE complex of Ac-EHLKKWM-NH2 [Ac-SEQ ID NO:8-NH2] >= 20%
**A:** f

**Q:** # bool: % inhibition formation SNARE complex of Palmitoyl-NHFLNWM-NH2 [Palm-SEQ ID NO:15-NH2] >= 20%
**A:** f

**Q:** # bool: % inhibition formation SNARE complex of Ac-EDLKRWM-NH2 [Ac-SEQ ID NO:14-NH2] >= 20%
**A:** t
